Overview of reported IC50 across a group of binders:
assayedTarget: HIV-1 reverse transcriptase (HXB2, group M subtype B) (Human immunodeficiency virus 1, UniProt P04585 SEQ:1-560)
assayName: inhibition; DDDP, K+ buffer
testContext: tags: expressed in E. coli; hairpin + G4, termini within quadruplex

binder="GGGTGGGTGGGTTCGCCTGATTAGCGATACTCAGGCGTTGGG (ssDNA) [Ecut]" measuredattribute=IC50 experimentalresult="99 nM"
binder="GGGTTCGCCTGATTAGCGATACTCAGGCGTTGGGTGGGTGGG (ssDNA) [Bcut]" measuredattribute=IC50 experimentalresult="48 nM"

// below: IC50 requested for another binder
What value of IC50 has been reported for the following binder? GGGTGGGTTGCGGACTCATAGCGATTAGTCCGCTTGGGTGGG (ssDNA) [Acutrev]
33 nM

Origin of the recorded values: patent US20090305281
